Source: patent US20260242735A1

Consider the following binders; for each one, report its Mean % WT Binding.
Molecular target: human CD33 N113A (human, UniProt P20138 18-364)
Sequence (P20138 18-364 N113A limits assumed): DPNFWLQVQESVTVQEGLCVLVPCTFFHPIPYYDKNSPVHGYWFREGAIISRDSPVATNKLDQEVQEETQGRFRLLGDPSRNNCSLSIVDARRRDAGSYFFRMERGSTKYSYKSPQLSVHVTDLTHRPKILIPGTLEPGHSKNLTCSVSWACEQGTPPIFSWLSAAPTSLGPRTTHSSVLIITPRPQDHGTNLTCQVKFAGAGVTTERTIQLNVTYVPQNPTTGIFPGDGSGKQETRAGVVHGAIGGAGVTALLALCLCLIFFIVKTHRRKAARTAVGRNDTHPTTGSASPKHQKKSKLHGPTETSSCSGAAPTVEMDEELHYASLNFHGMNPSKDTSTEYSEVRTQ
Test: flow cytometry on HEK293-T, alanine scan

Data point: Refmab #1 (antibody, V domains shown, The alanine scan used IgG or Fab; also called hP67.6) VH: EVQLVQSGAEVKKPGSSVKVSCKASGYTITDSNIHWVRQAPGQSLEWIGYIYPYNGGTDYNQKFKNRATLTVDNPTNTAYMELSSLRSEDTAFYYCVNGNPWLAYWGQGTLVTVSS VL: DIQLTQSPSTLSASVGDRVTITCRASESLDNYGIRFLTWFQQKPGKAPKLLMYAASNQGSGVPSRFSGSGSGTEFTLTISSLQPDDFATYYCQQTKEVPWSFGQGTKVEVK ; Mean % WT Binding = 96 % WT binding

Data point: Refmab #3 (antibody, V domains shown, The alanine scan used IgG or Fab) VH: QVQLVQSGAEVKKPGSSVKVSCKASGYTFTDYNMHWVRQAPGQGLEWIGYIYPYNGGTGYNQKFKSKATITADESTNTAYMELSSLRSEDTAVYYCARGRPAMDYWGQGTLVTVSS VL: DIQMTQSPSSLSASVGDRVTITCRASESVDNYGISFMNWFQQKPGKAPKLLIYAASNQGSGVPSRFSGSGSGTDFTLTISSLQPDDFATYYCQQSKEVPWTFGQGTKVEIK ; Mean % WT Binding = 81.4 % WT binding

Data point: Refmab #4 (antibody, V domains shown, The alanine scan used IgG or Fab) VH: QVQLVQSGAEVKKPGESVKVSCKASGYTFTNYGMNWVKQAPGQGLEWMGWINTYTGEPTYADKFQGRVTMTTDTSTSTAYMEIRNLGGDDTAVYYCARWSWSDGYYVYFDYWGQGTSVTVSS VL: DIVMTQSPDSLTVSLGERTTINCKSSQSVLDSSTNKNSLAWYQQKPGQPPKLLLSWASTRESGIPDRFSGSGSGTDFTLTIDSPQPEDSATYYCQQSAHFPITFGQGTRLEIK ; Mean % WT Binding = 45.1 % WT binding
